The reported numbers originate from patent US8273724B2.

- Tested on: T2 cell lines preincubated with peptide
- Experimental Protocol: Recognition of modified peptides by natural epitope (M9-2, G9-154, G9-209, G9-280) reactive T-cells, 51Cr release on peptide-pulsed T2 cells (Example 5)
- Type: cell-based, human
Where a SMILES comes first, the peptide text is derived from it.

>  <Compound>
CC(C)C[C@H](NC(=O)[C@H](C)N)C(=O)N[C@@H](Cc1c[nH]c2ccccc12)C(=O)NCC(=O)N[C@@H](CCC(N)=O)C(=O)N[C@@H](Cc1ccc(O)cc1)C(=O)N[C@@H](Cc1c[nH]c2ccccc12)C(=O)N[C@@H](CCC(N)=O)C(=O)N[C@H](C(=O)O)C(C)C [G9-154-1A2L] (H-ALWGQYWQV-OH; N-terminus and C-terminus assumed)

>  <Recognition by G9-154 reactive T-cell>
+ (+, recognized)

$$$$
>  <Compound>
CC(C)C[C@H](NC(=O)[C@@H](N)Cc1c[nH]c2ccccc12)C(=O)N[C@@H](Cc1c[nH]c2ccccc12)C(=O)NCC(=O)N[C@@H](CCC(N)=O)C(=O)N[C@@H](Cc1ccc(O)cc1)C(=O)N[C@@H](Cc1c[nH]c2ccccc12)C(=O)N[C@@H](CCC(N)=O)C(=O)N[C@H](C(=O)O)C(C)C [G9-154-1W2L] (H-WLWGQYWQV-OH; N-terminus and C-terminus assumed)

>  <Recognition by G9-154 reactive T-cell>
−

$$$$
>  <Compound>
CC(C)[C@H](NC(=O)[C@H](CCC(N)=O)NC(=O)[C@H](Cc1c[nH]c2ccccc12)NC(=O)[C@H](Cc1ccc(O)cc1)NC(=O)[C@H](CCC(N)=O)NC(=O)CNC(=O)[C@H](Cc1ccc(O)cc1)NC(=O)[C@@H](NC(=O)[C@@H](N)CCCCN)[C@@H](C)O)C(=O)O [G9-154-3Y] (H-KTYGQYWQV-OH; N-terminus and C-terminus assumed)

>  <Recognition by G9-154 reactive T-cell>
+ (+, recognized)

$$$$

====

- System: T2 cell lines preincubated with peptide
- Experimental Protocol: Recognition of modified peptides by natural epitope (M9-2, G9-154, G9-209, G9-280) reactive T-cells, 51Cr release on peptide-pulsed T2 cells (Example 5)
- Format: cell-based, human
Result Type: Recognition by M9-2 reactive T-cell

Observe how each entry below is paired with its result.
>  <Molecular String>
CC[C@H](C)[C@H](NC(=O)CNC(=O)[C@@H](NC(=O)[C@H](Cc1ccccc1)NC(=O)[C@H](C)NC(=O)[C@H](C)N)[C@@H](C)CC)C(=O)N[C@@H](CC(C)C)C(=O)N[C@H](C(=O)N[C@H](C(=O)O)C(C)C)[C@@H](C)O

>  <System Under Test>
T2 cell lines preincubated with peptide

>  <Result Type>
Recognition by M9-2 reactive T-cell

>  <Recorded Result>
−

$$$$
>  <Molecular String>
CC[C@H](C)[C@H](NC(=O)CNC(=O)[C@@H](NC(=O)[C@H](Cc1ccccc1)NC(=O)[C@H](CC(C)C)NC(=O)[C@H](C)N)[C@@H](C)CC)C(=O)N[C@@H](CC(C)C)C(=O)N[C@H](C(=O)N[C@H](C(=O)O)C(C)C)[C@@H](C)O

>  <System Under Test>
T2 cell lines preincubated with peptide

>  <Result Type>
Recognition by M9-2 reactive T-cell

>  <Recorded Result>
−

$$$$
>  <Molecular String>
CC[C@H](C)[C@H](NC(=O)CNC(=O)[C@H](C)NC(=O)[C@@H](N)Cc1c[nH]c2ccccc12)C(=O)NCC(=O)N[C@H](C(=O)N[C@@H](CC(C)C)C(=O)N[C@H](C(=O)N[C@H](C(=O)O)C(C)C)[C@@H](C)O)[C@@H](C)CC

>  <System Under Test>
T2 cell lines preincubated with peptide

>  <Result Type>
Recognition by M9-2 reactive T-cell

>  <Recorded Result>
+ (+, recognized)

$$$$
>  <Molecular String>
CC[C@H](C)[C@H](NC(=O)CNC(=O)[C@H](CC(C)C)NC(=O)[C@@H](N)Cc1ccc(O)cc1)C(=O)NCC(=O)N[C@H](C(=O)N[C@@H](CC(C)C)C(=O)N[C@H](C(=O)N[C@H](C(=O)O)C(C)C)[C@@H](C)O)[C@@H](C)CC

>  <System Under Test>
T2 cell lines preincubated with peptide

>  <Result Type>
Recognition by M9-2 reactive T-cell

>  <Recorded Result>
−

$$$$
>  <Molecular String>
CC[C@H](C)[C@H](NC(=O)CNC(=O)[C@H](C)NC(=O)[C@@H](N)Cc1ccc(O)cc1)C(=O)NCC(=O)N[C@H](C(=O)N[C@@H](CC(C)C)C(=O)N[C@H](C(=O)N[C@H](C(=O)O)C(C)C)[C@@H](C)O)[C@@H](C)CC

>  <System Under Test>
T2 cell lines preincubated with peptide

>  <Result Type>
Recognition by M9-2 reactive T-cell

>  <Recorded Result>
−

$$$$
>  <Molecular String>
CC[C@H](C)[C@H](NC(=O)CNC(=O)[C@H](CC(C)C)NC(=O)[C@@H](N)Cc1ccccc1)C(=O)NCC(=O)N[C@H](C(=O)N[C@@H](CC(C)C)C(=O)N[C@H](C(=O)N[C@H](C(=O)O)C(C)C)[C@@H](C)O)[C@@H](C)CC

>  <System Under Test>
T2 cell lines preincubated with peptide

>  <Result Type>
Recognition by M9-2 reactive T-cell

>  <Recorded Result>
−

$$$$

query: What does the data say about its Recognition by M9-2 reactive T-cell? Entry: CC[C@H](C)[C@H](NC(=O)CNC(=O)[C@@H](NC(=O)[C@H](Cc1c[nH]c2ccccc12)NC(=O)[C@H](C)NC(=O)[C@H](C)N)[C@@H](C)CC)C(=O)N[C@@H](CC(C)C)C(=O)N[C@H](C(=O)N[C@H](C(=O)O)C(C)C)[C@@H](C)O
result: −

query: Try this compound next: CC[C@H](C)[C@H](NC(=O)CNC(=O)[C@@H](NC(=O)[C@H](Cc1ccc(O)cc1)NC(=O)[C@H](C)NC(=O)[C@H](C)N)[C@@H](C)CC)C(=O)N[C@@H](CC(C)C)C(=O)N[C@H](C(=O)N[C@H](C(=O)O)C(C)C)[C@@H](C)O
result: + (+, recognized)

query: Try this compound too: CC[C@H](C)[C@H](NC(=O)CNC(=O)[C@H](C)NC(=O)[C@H](C)N)C(=O)NCC(=O)N[C@H](C(=O)N[C@@H](CC(C)C)C(=O)N[C@H](C(=O)N[C@H](C(=O)O)C(C)C)[C@@H](C)O)[C@@H](C)CC
result: + (+, recognized)

query: Same thing, different compound: CC[C@H](C)[C@H](NC(=O)CNC(=O)[C@H](CC(C)C)NC(=O)[C@H](C)N)C(=O)NCC(=O)N[C@H](C(=O)N[C@@H](CC(C)C)C(=O)N[C@H](C(=O)N[C@H](C(=O)O)C(C)C)[C@@H](C)O)[C@@H](C)CC
result: + (+, recognized)

query: // same read-out, input: CC[C@H](C)[C@H](NC(=O)CNC(=O)[C@H](CC(C)C)NC(=O)[C@@H](N)CCCCN)C(=O)NCC(=O)N[C@H](C(=O)N[C@@H](CC(C)C)C(=O)N[C@H](C(=O)N[C@H](C(=O)O)C(C)C)[C@@H](C)O)[C@@H](C)CC
result: −

query: Try the compound CC[C@H](C)[C@H](NC(=O)CNC(=O)[C@@H](NC(=O)[C@H](C)N)[C@@H](C)CC)C(=O)NCC(=O)N[C@H](C(=O)N[C@@H](CC(C)C)C(=O)N[C@H](C(=O)N[C@H](C(=O)O)C(C)C)[C@@H](C)O)[C@@H](C)CC
result: −

query: Cool, now CC[C@H](C)[C@H](NC(=O)CNC(=O)[C@@H](NC(=O)[C@H](Cc1ccc(O)cc1)NC(=O)[C@H](CC(C)C)NC(=O)[C@H](C)N)[C@@H](C)CC)C(=O)N[C@@H](CC(C)C)C(=O)N[C@H](C(=O)N[C@H](C(=O)O)C(C)C)[C@@H](C)O
result: −

query: Now try CC[C@H](C)[C@H](NC(=O)CNC(=O)[C@H](CC(C)C)NC(=O)[C@@H](N)Cc1c[nH]c2ccccc12)C(=O)NCC(=O)N[C@H](C(=O)N[C@@H](CC(C)C)C(=O)N[C@H](C(=O)N[C@H](C(=O)O)C(C)C)[C@@H](C)O)[C@@H](C)CC .
result: −

query: // repeat for CC[C@H](C)[C@H](NC(=O)CNC(=O)[C@H](CCSC)NC(=O)[C@H](C)N)C(=O)NCC(=O)N[C@H](C(=O)N[C@@H](CC(C)C)C(=O)N[C@H](C(=O)N[C@H](C(=O)O)C(C)C)[C@@H](C)O)[C@@H](C)CC and report
result: −
